Below, each of the compounds is paired with its reported Activity value.
# tested-target: Transthyretin (Homo sapiens, UniProt P02766)
# experimental-details: Inhibition of TTR mediated fibrillogenesis assessed as acid-induced protein aggregation turbidity after 1.5 hrs by turbidimetric assay relative to control
# Design: concentration or dose not given beside the values

# chemical-structure, Activity (%)
records = [
    ("COc1ccc(/N=C2\\C(=O)Nc3ccccc32)cc1", 100),
    ("COc1ccc(/N=C2\\C(=O)Nc3ccc(C)cc32)cc1", 32),
    ("O=C1Nc2ccc(Br)cc2/C1=N/c1ccc(I)cc1", 16),
    ("CN1C(=O)C(=O)c2ccccc21", 100),
    ("O=C1Nc2ccc([N+](=O)[O-])cc2/C1=N/c1ccc(I)cc1", 7),
    ("COc1ccc(/N=C2\\C(=O)Nc3ccc(Br)cc32)cc1", 48),
    ("COc1ccc(/N=C2\\C(=O)Nc3ccc(I)cc32)cc1", 42),
    ("O=C1Nc2ccc(I)cc2/C1=N/c1ccc(I)cc1", 23),
    ("CN1C(=O)/C(=N\\c2ccccc2)c2ccccc21", 77),
    ("O=C1Nc2ccc(I)cc2/C1=N/c1ccccc1", 1),
    ("CN1C(=O)/C(=N\\c2ccc([N+](=O)[O-])cc2)c2ccccc21", 86),
    ("CN1C(=O)/C(=N\\c2ccc(I)cc2)c2ccccc21", 0),
]

----------
Catalogue of IC50 readings, one per entry.
# tested-target: Transthyretin (Homo sapiens, UniProt P02766)
# experimental-details: Inhibition of TTR mediated fibrillogenesis assessed as acid-induced protein aggregation turbidity after 1.5 hrs by turbidimetric assay

# chemical-structure, IC50
records = [
    ("O=C1Nc2ccccc2/C1=N/c1ccc([N+](=O)[O-])cc1", "2.8 µM"),
    ("O=C1Nc2ccccc2C1=O", "> 50 µM"),
    ("O=C1Nc2ccc(I)cc2/C1=N/c1ccc(I)cc1", "> 50 µM"),
    ("COc1ccc(/N=C2\\C(=O)N(C)c3ccccc32)cc1", "7.7 µM"),
    ("COc1ccc(/N=C2\\C(=O)Nc3ccc([N+](=O)[O-])cc32)cc1", "> 50 µM"),
    ("COc1ccc(/N=C2\\C(=O)Nc3ccc(Br)cc32)cc1", "> 50 µM"),
    ("CN1C(=O)/C(=N\\c2ccc([N+](=O)[O-])cc2)c2ccccc21", "6.3 µM"),
    ("O=C1Nc2ccc(Br)cc2/C1=N/c1ccc(I)cc1", "> 50 µM"),
]

----------
# tested-target: Transthyretin (Homo sapiens, UniProt P02766)
# experimental-details: Inhibition of TTR mediated fibrillogenesis assessed as acid-induced protein aggregation turbidity after 1.5 hrs by turbidimetric assay
pIC50: −log10 of the molar value.
Collected pIC50 values appear next to each entry.
endpoint-label: pIC50

# chemical-structure, measured-value
rows = [
    ("COc1ccc(/N=C2\\C(=O)Nc3ccc(I)cc32)cc1", "< 4.30"),
    ("CN1C(=O)C(=O)c2ccccc21", 5.20),
    ("COc1ccc(/N=C2\\C(=O)Nc3ccc(C)cc32)cc1", "< 4.30"),
    ("CN1C(=O)/C(=N\\c2ccccc2)c2ccccc21", 4.96),
    ("COc1ccc(/N=C2/C(=O)Nc3ccccc32)cc1", 5.09),
    ("Cc1ccc(/N=C2\\C(=O)Nc3ccccc32)cc1", "< 4.30"),
    ("O=C1Nc2ccc(I)cc2/C1=N/c1ccccc1", "< 4.30"),
    ("Cc1ccc(/N=C2\\C(=O)N(C)c3ccccc32)cc1", 5.20),
    ("CN1C(=O)/C(=N\\c2ccc(I)cc2)c2ccccc21", "< 4.30"),
    ("Cc1ccc2c(c1)/C(=N/c1ccc(I)cc1)C(=O)N2", "< 4.30"),
    ("Oc1c(I)cc(I)cc1I", 5.49),
    ("O=C1Nc2ccc([N+](=O)[O-])cc2/C1=N/c1ccc(I)cc1", "< 4.30"),
    ("O=C1Nc2ccccc2/C1=N/c1ccc(I)cc1", "< 4.30"),
]
